Data origin, for the record: patent EP3319959B1

biological target: UniProt:Q13547; assay: Reporter displacement assay (HDAC1); format: binding
Sequence (Q13547 whole entry): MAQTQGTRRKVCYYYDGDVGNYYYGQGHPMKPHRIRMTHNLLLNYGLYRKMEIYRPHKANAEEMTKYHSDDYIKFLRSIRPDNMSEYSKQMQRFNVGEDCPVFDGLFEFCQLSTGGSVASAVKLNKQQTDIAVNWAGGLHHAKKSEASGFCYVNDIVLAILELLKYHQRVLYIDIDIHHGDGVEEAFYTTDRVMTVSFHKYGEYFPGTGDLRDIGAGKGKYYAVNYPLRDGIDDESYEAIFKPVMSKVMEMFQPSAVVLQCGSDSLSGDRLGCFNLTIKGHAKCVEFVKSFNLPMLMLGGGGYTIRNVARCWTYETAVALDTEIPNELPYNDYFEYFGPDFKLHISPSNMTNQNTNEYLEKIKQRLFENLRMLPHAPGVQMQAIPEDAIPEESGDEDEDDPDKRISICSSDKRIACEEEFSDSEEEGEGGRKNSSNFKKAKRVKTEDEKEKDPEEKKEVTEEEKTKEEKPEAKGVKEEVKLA
Listed molecules paired with reported residence time
Report only the number, with the unit min understood.

* Nc1ccc(-c2ccc(F)cc2)nc1NC(=O)N1CCCC1 [Compound 107] | 653
* Nc1cc(F)c(-c2ccc(F)cc2)cc1NC(=O)N1CCCC1 [Compound 114] | 49

Shifting focus to the molecule that follows.
The molecule listed as Nc1cnc(-c2ccc(F)cc2)cc1NC(=O)C1CCOCC1 [Compound 106] has a reported residence time of 121

###

system: recombinant human HDACs; experiment: HDAC enzymatic assay (LabChip capillary electrophoresis); type: biochemical; settings: 5 nM HDAC enzyme, 1 uM substrate, 5 hours pre-incubation, 17 hours reaction at 25°C; isoform not given
Readout name: IC50

• Nc1cn(-c2ccc(F)cc2)nc1NC(=O)N1CCN(C(=O)[C@@H]2C[C@H]2c2ccccc2)CC1 = 0.5 to 5 µM
• Nc1ccc(-c2ccc(F)cc2)nc1NC(=O)N1CC2CN(C3COC3)CC2C1 (centres unmarked) = > 5 µM

# compound Nc1ccc(-c2ccc(F)cc2)nc1NC(=O)C1CC2CCC(C1)O2 (centres unmarked) ; its IC50 = > 5 µM

// IC50 value for "CN1CC(n2cc3c(n2)CN(C(=O)Nc2nc(-c4ccc(F)cc4)ccc2N)C3)C1" : 0.1 to 0.5 µM

// Nc1ccc(-c2ccc(F)cc2)nc1NC(=O)N1CC2COCC2C1 (centres unmarked) : IC50 value = 0.5 to 5 µM

Measured IC50 of "CC(=O)N1CCC(C(=O)Nc2nn(-c3ccccc3)cc2N)CC1" : > 5 µM

IC50 reported for this compound "COc1ccc(-c2ccc(N)c(NC(=O)N3Cc4cc(F)cnc4C3)n2)cc1" : 0.5 to 5 µM
